B1: RAD51 (parent)
chain: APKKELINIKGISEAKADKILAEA

Variants of: B1
Test: protein stability index of a GFP-peptide fusion (GPS, HEK-293T) (PSI 1-6); higher = more stable;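 note: lentivirally expressed fusions sorted by FACS into six bins by GFP to DsRed ratio, PSI derived from sequencing read proportions per bin multiplied by bin number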
Conditions: c terminus: a fixed tail appended
# label = True if protein stability index >= 4 else False

Could you verify whether the entry APKKELINIKGISEAKADKIGAEA [L21G] shows protein stability index of no less than 4?
True

Could you verify whether the entry APKKELINIKGISEAKCDKILAEA [A17C] shows protein stability index of no less than 4?
True

Could you verify whether the entry APKKELINIKGIQEAKADKILAEA [S13Q] shows protein stability index of no less than 4?
True

Could you verify whether the entry APKQELINIKGISEAKADKILAEA [K4Q] shows protein stability index of no less than 4?
True

Could you verify whether the entry APKKELINIKGKSEAKADKILAEA [I12K] shows protein stability index of no less than 4?
True

Could you verify whether the entry APKKELINIKGISEAKADKIIAEA [L21I] shows protein stability index of no less than 4?
True

Could you verify whether the entry APKKELINIKGASEAKADKILAEA [I12A] shows protein stability index of no less than 4?
True

Could you verify whether the entry APKKELINIKGISEAKAQKILAEA [D18Q] shows protein stability index of no less than 4?
True

Could you verify whether the entry APKKRLINIKGISEAKADKILAEA [E5R] shows protein stability index of no less than 4?
True

Could you verify whether the entry APKKELINIKGPSEAKADKILAEA [I12P] shows protein stability index of no less than 4?
True

Could you verify whether the entry APKKELINIKGISEAKADKILAFA [E23F] shows protein stability index of no less than 4?
False

Could you verify whether the entry APKGELINIKGISEAKADKILAEA [K4G] shows protein stability index of no less than 4?
True

Could you verify whether the entry APKKELINIKGNSEAKADKILAEA [I12N] shows protein stability index of no less than 4?
True

Could you verify whether the entry APEKELINIKGISEAKADKILAEA [K3E] shows protein stability index of no less than 4?
True

Could you verify whether the entry APKKELINIKGISEACADKILAEA [K16C] shows protein stability index of no less than 4?
True

Could you verify whether the entry ATKKELINIKGISEAKADKILAEA [P2T] shows protein stability index of no less than 4?
True

Could you verify whether the entry APKKELINIKCISEAKADKILAEA [G11C] shows protein stability index of no less than 4?
True

Could you verify whether the entry APKKEQINIKGISEAKADKILAEA [L6Q] shows protein stability index of no less than 4?
True

Could you verify whether the entry APKKELINIKGISTAKADKILAEA [E14T] shows protein stability index of no less than 4?
True

Could you verify whether the entry APKKELINIKGIREAKADKILAEA [S13R] shows protein stability index of no less than 4?
True

Could you verify whether the entry APKKELINIKEISEAKADKILAEA [G11E] shows protein stability index of no less than 4?
True

Could you verify whether the entry APKKELINIDGISEAKADKILAEA [K10D] shows protein stability index of no less than 4?
True

Could you verify whether the entry APKKELINIKGISEAKADKILARA [E23R] shows protein stability index of no less than 4?
False

Could you verify whether the entry APKKELINIKGISEAKADKILYEA [A22Y] shows protein stability index of no less than 4?
False

Could you verify whether the entry APKKESINIKGISEAKADKILAEA [L6S] shows protein stability index of no less than 4?
True

Could you verify whether the entry APKKELINIKGISEAKADKILAWA [E23W] shows protein stability index of no less than 4?
False

Could you verify whether the entry APKKYLINIKGISEAKADKILAEA [E5Y] shows protein stability index of no less than 4?
False

Could you verify whether the entry APFKELINIKGISEAKADKILAEA [K3F] shows protein stability index of no less than 4?
False

Could you verify whether the entry APKKELINGKGISEAKADKILAEA [I9G] shows protein stability index of no less than 4?
True

Could you verify whether the entry APKKELINIKGISKAKADKILAEA [E14K] shows protein stability index of no less than 4?
True

Could you verify whether the entry APKKELINIKGISEASADKILAEA [K16S] shows protein stability index of no less than 4?
True

Could you verify whether the entry ASKKELINIKGISEAKADKILAEA [P2S] shows protein stability index of no less than 4?
True

Could you verify whether the entry APKKELINICGISEAKADKILAEA [K10C] shows protein stability index of no less than 4?
True

Could you verify whether the entry APKKELINIKGISEAKADKILAVA [E23V] shows protein stability index of no less than 4?
False

Could you verify whether the entry APKKELINIKGISIAKADKILAEA [E14I] shows protein stability index of no less than 4?
False

Could you verify whether the entry APKKELINIKGISEAKADSILAEA [K19S] shows protein stability index of no less than 4?
True

Could you verify whether the entry APKKELINIKGISEAKAWKILAEA [D18W] shows protein stability index of no less than 4?
False

Could you verify whether the entry APKKELINIKGISEAKADAILAEA [K19A] shows protein stability index of no less than 4?
False
